Data provenance is ChEMBL document CHEMBL1201862.

- Tested on: DU-145
- ASSAY_NOTES: NCI tumour cell line growth inhibition, 48 h
Calls of active or inactive are those of the source. No stated cut-off is given here; in the data, active = GI50 up to about 1.1 µM and inactive = higher.
REPORTED_METRIC: GI50

// fetch GI50 given entry COc1cc(NC(C)CCCN)c2ncccc2c1 (stereo not drawn) [PRIMAQUINE PHOSPHATE]
99.1 µM (inactive)

Provide one value: measured GI50 of CCOC(=O)c1cccc(NC(=O)CI)c1
1.76 µM (inactive)

Give the measured GI50 for C=C(Br)C(C)(Br)CCC(Br)C(C)(C)Cl (stereo not drawn)
21.5 µM (inactive)

Identify GI50 associated with the compound Sc1nnc(SCc2ccccc2Cl)c2nc[nH]c12
> 100 µM (inactive)

Quote GI50 reported for CCOC(OCC)N1C(=O)C2(C(OCC)OCC)CC3C(OC(=O)N3N)c3cccc1c32 (stereo not drawn) please.
> 100 µM (inactive)

State its GI50 for this compound: Cc1ccc(S(=O)(=O)NC(=O)NC(C(=O)O)C(C)O)cc1 (stereo not drawn)
> 100 µM (inactive)

Output measured GI50 for this item: CSc1c(C#N)c(N)n(-c2ccc(Cl)cc2)c(=O)c1C#N
> 100 µM (inactive)

Annotate the compound O=P(Oc1ccccc1)(Oc1ccccc1)Oc1c[nH]c2ccccc12 with its measured GI50.
36.6 µM (inactive)

Determine from records and report GI50 for O=C(c1ccccc1)c1ccc2nc3n(c2c1)C(c1c(Cl)cccc1Cl)SC3 (stereo not drawn)
13.5 µM (inactive)

Look up GI50 of C=C1C(=O)O[C@@H]2C(=O)[C@@H](C)CCC/C(C)=C/CC[C@@]3(C)O[C@@H]3C[C@@H]12 and report it.
75.2 µM (inactive)

Given CC1(C)CS(=O)(=O)CC(C)(C)C(=N/N)/C1=N\N , respond with its GI50.
> 100 µM (inactive)

Output GI50 of CCOC(=O)[C@H]1C[C@]23CN(C(=O)OC(C)(C)C)CC[C@H]2CCC2(SCCCS2)[C@@H]3N1C
54.3 µM (inactive)

Fill in GI50 for record CN(C)c1ccc(C(=C2C=CC(=[N+](C)C)C=C2)c2c(O)c(S(=O)(=O)[O-])cc3cc(S(=O)(=O)O)ccc23)cc1
> 100 µM (inactive)

###

- System: OVCAR-3
- ASSAY_NOTES: NCI tumour cell line growth inhibition, 48 h
The source made the active and inactive calls. Rule as the data show it: active = GI50 up to about 1.1 µM and inactive = higher.
Please go through the items and note down their GI50.

Fill in reported GI50 for this entry: Fc1ccccc1C1CC(C(c2ccccc2)c2ccccc2)=Nc2ccccc2S1 (stereo not given)
11.3 µM (inactive)

For the compound Cc1ccc([C@@H]2[C@@H](C(=O)c3ccccn3)[C@H](c3ccc(C)cc3)C[C@](O)(c3ccccn3)[C@H]2C(=O)c2ccccn2)cc1 , give its measured GI50 value.
7.8 µM (inactive)

Please give measured GI50 of the following entry: CC1(C)O[C@@H](CC/C=C/CO)[C@H](CC/C=C/CO)O1
> 100 µM (inactive)

Supply GI50 value. Item: CC(=O)c1c(O)ccc2c1CC(CC=O)O2 (stereo not given)
48.5 µM (inactive)

Tell us which GI50 value is on record for O=S(=O)(c1ccccc1)[C@H]1[C@@H]2O[C@@H]2C[C@@H]1O
> 100 µM (inactive)

Report GI50, nothing else, for this compound: Cc1cc2c(cc1C)N1Cc3c(ccc(C)c3C)N(C2)C1.Cc1cc2c(cc1C)N1Cc3cc(C)c(C)cc3N(C2)C1
> 100 µM (inactive)

Report GI50 for O=C1Nc2ccccc2C1(O)Cc1ccccn1 (stereo not given)
> 100 µM (inactive)

Return GI50 (reported value) for this compound: C[N+]1(C)C2CC(OC(=O)C(CO)c3ccccc3)CC1C1OC12 (stereo not given)
> 100 µM (inactive)

Specify reported GI50 for the compound shown: CNC(=S)N/N=C(\C)c1ccc(OC)cc1O
> 100 µM (inactive)

Given the compound CCOC(=O)/C=C(\C(=O)OCC)n1ccc(N)nc1=O , write its reported GI50.
> 100 µM (inactive)

###

- System: OVCAR-4
- ASSAY_NOTES: NCI tumour cell line growth inhibition, 48 h
The source made the active and inactive calls. Cut-off read from the data, not from the text of the source: active = GI50 up to about 1.1 µM and inactive = higher.
Choose one outcome from this list and give only that: t for active, f for inactive

Record lookup: outcome of this test for O=c1cc(-c2ccncc2)[nH]c2cc3c(cc12)OCO3 ?
f

Name the outcome recorded for CCCc1c(O)c(=O)c2c(OC)cc(OC)c3c4c(OC)cc(OC)c5c(=O)c(O)c(CCC)c(c1c23)c54 in the assay.
f

Per the records of this test, what outcome belongs to COc1cc(NC(C)CCCN)c2ncccc2c1 (stereo not given) [PRIMAQUINE PHOSPHATE] ?
f

What was the test verdict on COC1C(O)=C2C(=O)O/C(C)=C/C=C/C=C/C=C\CC(c3ccccc3)NC(=O)\C=C/C=C\C=C\C=C\[C@@]2(C)[C@@H]1O (stereo not given in full) ?
t

Dear all, I need the recorded test outcome for Cc1cccc(/C=N\NC(=S)N2CCCCC2)n1 , thank you.
t

Hi, do you know how CC(=O)OCC1OC(N2C(=O)NC(=O)C3C=C4CCCCC4=CC32)C(OC(C)=O)C1OC(C)=O (stereo not given) came out in this test?
f

Called result for COc1cc2c(cc1O)[C@H](C)C(c1ccc(Cl)cc1)O2 (stereo not given in full)
f

For this compound, state the assay outcome: CSc1nc2c(nc(C)c(=O)n2C2OCC(OC(C)=O)C(OC(C)=O)C2OC(C)=O)c(=O)[nH]1 (stereo not given)
f

How did this test come out for COc1ccccc1Cc1nc(-c2ccccc2)nn(C2OC(COC(C)=O)C(OC(C)=O)C(OC(C)=O)C2OC(C)=O)c1=S (stereo not given) ?
f

Per the assay record, what outcome was assigned to CSc1c(C#N)c(N)n(-c2ccc(Cl)cc2)c(=O)c1C#N ?
f

# outcome recorded in this test, key = CC(NC(=O)C(C)NC(=O)C(N)CCP(C)(=O)O)C(=O)O (stereo not given)
f

Dear all, I need the recorded test outcome for CCC(=O)OCOc1ccc(/C=C2\CCC(CN(C)C)C2=O)cc1 (stereo not given) , thank you.
f

Look up the recorded call for C=C1CC[C@@H]2[C@](C)(COC(=O)CCC(=O)OC)CCC[C@@]2(C)[C@@H]1CCC1=CC(=O)OC1 in this test.
f

Look up the recorded call for COC(=O)c1cc2c(cc1CC(Cc1ccc3c(c1)CCC3)C(=O)OC)CCC2 (stereo not given) in this test.
f

For O=C1C2=Cc3ccccc3OC2(O)Oc2cc(O)cc(O)c21 (stereo not given) , which call appears in the assay record?
f

Record lookup: outcome of this test for N#C/C(N)=N/c1ccccc1 ?
f

What is the recorded call for this compound in the test? CC1OC(n2cc(I)c(=O)[nH]c2=O)C=CC1=O (stereo not given)
f

Dear colleague, could you share the recorded outcome for Cc1ccc(S(=O)(=O)NC(=O)NC(C(=O)O)C(C)O)cc1 (stereo not given) when you have a moment?
f

# outcome recorded in this test, key = CC(=O)c1ccc(NC(=O)COC(=O)c2cccc3c(=O)c4ccccc4[nH]c23)cc1
f

Could you please tell me the result logged for NC(=S)N/N=C1\CCCC1C(O)(C(F)(F)Cl)C(F)(F)Cl (stereo not given) in this assay?
f

Hi, sorry to bother you, what did the test record for CSc1csc(-c2ccc(-c3ccc(-c4cc(SC)cs4)s3)s2)c1 ?
f

Short answer needed: outcome of this test for N#CCCN(CCCN(CCCN(C(=O)Nc1ccccc1)c1ccccc1)C(=O)Nc1ccccc1)C(=O)Nc1ccccc1 ?
f

State the result this test recorded for O=[N+]([O-])c1cccc2nc3ccccc3c(NCCNCCO)c12 .
t

Recorded test call requested for COC(=O)NN1C(C)=C(C(=O)OC)C2(CCOC2=O)C1(C)O (stereo not given)
f

Per the records of this test, what outcome belongs to CCOC(=O)c1nc2cc(C(F)(F)F)ccc2nc1Nc1ccc(Cl)c(Cl)c1 ?
f

Please let me know the test result on file for CN(C)c1ccc(C(=C2C=CC(=[N+](C)C)C=C2)c2c(O)c(S(=O)(=O)[O-])cc3cc(S(=O)(=O)O)ccc23)cc1 .
f

Please share the test call associated with O=C(/C=C/c1ccccc1)CSc1nc2ccc(I)cc2c(=O)n1Cc1ccccc1 .
f

Which outcome did this test record for the compound COc1ccccc1Cc1ccc(C2C=CC3(CC(=O)C=C3C)C(=O)C2)o1 (stereo not given) ?
f

Name the outcome recorded for Nc1ccc(C(=O)N/C(=C\c2cccc([N+](=O)[O-])c2)c2nc3ccccc3[nH]2)cc1 in the assay.
f

Could you please tell me the result logged for CN(C(=N)c1ccccc1)c1ccccc1 in this assay?
f

Tell me the recorded outcome of this test for CN/N=C(\C)c1c(O)cc(C)oc1=O .
f

What did this assay record as the result for Cc1nc2ccncc2[nH]1 ?
f

Recorded test outcome, item Cc1ccc([N+](=O)[O-])cc1S(=O)(=O)Nc1ccc(C2=NN(S(=O)(=O)c3cc([N+](=O)[O-])ccc3C)C(c3ccco3)C2)cc1 (stereo not given)
f

Call for entry COC(=O)[C@H](Cc1ccccc1)NC(=O)N1CCCN(C(=O)N[C@@H](Cc2ccccc2)C(=O)OC)CCCN(C(=O)N[C@@H](Cc2ccccc2)C(=O)OC)CCC1 :
f

Could you please tell me the result logged for FC(F)(Sc1ccccc1)c1nc2ccccc2o1 in this assay?
f

In this assay, the call recorded for O=C1C([N-]S(=O)(=O)c2ccccc2)=C([n+]2ccc(Cc3ccccc3)cc2)C(=O)c2ccccc21 was what?
f

Hi team, can someone confirm the assay call for Oc1ccc(-c2cc(-c3c(O)cc(O)cc3O)on2)cc1 ?
f

Which outcome did this test record for the compound COC(=O)C(=O)C(C(=O)C(=O)Nc1ccc([N+](=O)[O-])cc1[N+](=O)[O-])c1nc2ccc(Cl)cc2nc1O (stereo not given) ?
f

// return assay outcome for CC12CCC(=O)N1[C@@H](c1ccccc1)[C@@H](c1ccccc1)O2 (stereo not given in full)
f

Which outcome did this test record for the compound Clc1ccc(C(c2ccc(Cl)cc2)c2ccccn2)cc1 ?
f
